- system.name: T1, RNF-MD S2i (E427K/K804E in RNF20 and E428K/E431K/E434K/R442E/E832K/E835K in RNF40) (human, UniProt Q5VTR2 321-900; O75150 327-926, E427K | K804E | E428K | E431K | E434K | R442E | E832K | E835K)
- T1 construct: RNF20, human, residues 321-900; RNF40, human, residues 327-926; source: E. coli BL21 Rosetta (DE3), purified from the mixed cell extract (strep-tactin, dextrin, gel filtration); copies: 1 + 1
- assay.procedure: SPR; RNF-MD immobilised on a CM5 chip, intein-WAC flown over; Biacore 8K, 25°C, 20 mM HEPES (pH 7.5), 200 mM sodium chloride, 0.02% Tween 20
- test.parameters: both partners purified
assay.readout: Kd (µM)
One number for each entry, in µM.

[ask] For the binder intein-WAC S2 (E604K/K606E/R609E/R613E/E616K) (domain or fragment, human, UniProt Q9BTA9 570-647, looked up, WAC, human, residues 570-647; source: purified (Ni-NTA, heparin, gel filtration)) HVQGWPADHAEKQASRLREEAHNMGTIHMSEICTKLENLESLVEVCKIQATLREQRILFLRQQIKELEKLKNQNSFMV , give its reported Kd.
[reply] 0.262
